Reference source: ChEMBL document CHEMBL1641447

System: Pseudomonas aeruginosa
Assay details: Antibacterial activity against Pseudomonas aeruginosa ATCC 27853 after 16-20 hrs by microdilution broth method
Type: functional
Assay readout: MIC

Cpd smiles	Target entity	Assay readout	Observed measurement
NC[C@H]1O[C@H](O[C@H]2[C@H](O)[C@@H](O[C@H]3O[C@H](CO)[C@@H](O)[C@H](N)[C@H]3O)[C@H](N)C[C@@H]2N)[C@H](N)[C@@H](O)[C@@H]1NC(=O)C1CCNCC1	Pseudomonas aeruginosa	MIC	2 mg/L
NC[C@H]1O[C@H](O[C@H]2[C@H](O)[C@@H](O[C@H]3O[C@H](CO)[C@@H](O)[C@H](N)[C@H]3O)[C@H](N)C[C@@H]2N)[C@H](N)[C@@H](O)[C@@H]1NC(=O)C1CCCCC1	Pseudomonas aeruginosa	MIC	8 mg/L
NCCCC(=O)N[C@H]1[C@H](O)[C@@H](N)[C@@H](O[C@H]2[C@H](O)[C@@H](O[C@H]3O[C@H](CO)[C@@H](O)[C@H](N)[C@H]3O)[C@H](N)C[C@@H]2N)O[C@@H]1CN	Pseudomonas aeruginosa	MIC	0.5 mg/L
CN(C)[C@H]1[C@H](O)[C@@H](N)[C@@H](O[C@H]2[C@H](O)[C@@H](O[C@H]3O[C@H](CO)[C@@H](O)[C@H](N)[C@H]3O)[C@H](N)C[C@@H]2N)O[C@@H]1CN	Pseudomonas aeruginosa	MIC	> 128 mg/L
NC[C@@H]1O[C@@H](O[C@H]2[C@H](O)[C@@H](O[C@H]3O[C@H](CO)[C@@H](O)[C@H](N)[C@H]3O)[C@H](N)C[C@@H]2N)[C@@H](O)[C@H](O)[C@H]1O	Pseudomonas aeruginosa	MIC	> 128 mg/L
